System: SK-MEL-2 melanoma
test protocol: NCI tumour cell line growth inhibition, 48 h

{"columns": ["compound", "TGI"],
 "data": [
  ["COc1ccc(C2=Nc3c/c(=C\\c4c(O)[nH]c5cc(Cl)ccc45)ccc3=N2)cc1", "26.6 µM"],
  ["COC1CC(OC2C(C)OC(OC3C(C)OC(OC4C(C)OC(O[C@H]5CC[C@@]6(C)C(=CC[C@]7(O)[C@@H]6C[C@@H](O)[C@@]6(C)[C@]7(O)CC[C@@]6(O)C(C)=O)C5)CC4OC)CC3OC)CC2OC)OC(C)C1O (some centres undefined)", "> 12.5 µM"],
  ["COC(=O)C(NC(=O)OC(C)(C)C)P(=O)(OC)OC (centres undefined)", "> 100 µM"],
  ["CC(C)C(NC(=O)C(Cc1ccccc1)NC(=O)[C@H]1CCC[C@H]1NC(=O)C(Cc1ccc(OC(C)(C)C)cc1)NC(=O)OC(C)(C)C)C(N)=O (some centres undefined)", "41.6 µM"],
  ["O=C1C=Cc2ncccc2C1=O", "39.2 µM"],
  ["COc1ccc(-n2cnc3c(NC(Cc4ccccc4)C(=O)O)ncnc32)cc1 (centres undefined)", "> 100 µM"],
  ["CCn1c2ccccc2c2cc(Nc3cc(C)[nH]c(=O)n3)ccc21", "> 100 µM"],
  ["COC(=O)C(=O)C(C(=O)C(=O)Nc1cc(Cl)c(Cl)cc1Cl)c1nc2ccc([N+](=O)[O-])cc2[nH]c1=O (centres undefined)", "> 100 µM"],
  ["CCOC(=O)Cn1c(=O)c(C)cn(COCCO)c1=O", "> 100 µM"],
  ["CC(/C=N/N=C(N)N)=N\\N=C(N)N", "149 µM"],
  ["N#C/C(=C\\c1ccc2[nH]ccc2c1)C(=O)c1ccc(O)c(O)c1", "> 100 µM"],
  ["c1ccc(-c2nnc3nn4c(-c5ccccc5)cnnc4c3c2-c2ccccc2)cc1", "> 100 µM"],
  ["O=C(Cc1ccccc1)NN1C(=O)/C(=C\\c2ccccc2O)SC1=Nc1ccccc1", "> 100 µM"],
  ["O=c1[nH]c2ccc([N+](=O)[O-])cc2nc1/C=C(\\O)c1ccccc1", "> 100 µM"],
  ["O=c1[nH]c2ccc(CC(=S)N3CCCCC3)cc2s1", "> 100 µM"],
  ["CC(C)(C)[Si](C)(C)OC[C@H](/C=C\\CCCC(=O)O)NC1(c2ccccc2)c2ccccc2-c2ccccc21", "26.7 µM"],
  ["O=C(O)c1ccc(N/C(=C(/C(Cl)=C(Cl)Cl)[N+](=O)[O-])n2nnc3ccccc32)cc1", "> 100 µM"],
  ["O=c1c2ccccc2nc(-c2ccccc2)n1NC(=S)Nc1cccc(Cl)c1", "> 100 µM"],
  ["CC(=O)[C-](C(C)=O)c1ccccc1.CC(=O)[C-](C(C)=O)c1ccccc1.CC(=O)[C-](C(C)=O)c1ccccc1.[Cl-].[Zr+4]", "> 100 µM"]
]}

###

Tested on: IGROV1 ovarian
test protocol: NCI tumour cell line growth inhibition, 48 h
Reported GI50 values for a set of compounds
assay readout: GI50

{"columns": ["smiles notation", "assay readout", "endpoint value"],
 "data": [
  ["Oc1ccc(Cl)cc1/C=N\\NC(=S)N/N=C/c1cc(Cl)ccc1O", "GI50", "2.52 µM"],
  ["O=C(Nc1cccc(C(F)(F)F)c1)c1cc2ccccc2cc1O", "GI50", "2.88 µM"],
  ["O=C(C=C=Nc1ccccc1)C(=O)N=C=Cc1ccccc1", "GI50", "2.96 µM"],
  ["COc1cccc(NC2=C(Cl)C(=O)N(Cc3ccc(Cl)cc3)C2=O)c1", "GI50", "11.9 µM"],
  ["O=Cc1ccc(N2CCN(c3ccc(C=O)cc3)CC2)cc1", "GI50", "45.8 µM"],
  ["COc1ccc(C2=Nc3c/c(=C\\c4c(O)[nH]c5cc(Cl)ccc45)ccc3=N2)cc1", "GI50", "17.6 µM"]
]}

###

Tested on: A549 NSCLC
test protocol: NCI tumour cell line growth inhibition, 48 h
Reported TGI values for a set of compounds
assay readout: TGI (µM)

{"columns": ["compound", "assay readout", "cmp", "endpoint value"],
 "data": [
  ["C=C(C)[C@@H]1CC[C@]2(C(=O)NC(C)=O)CC[C@]3(C)[C@H](CC[C@@H]4[C@@]5(C)CCCNC(C)(C)[C@@H]5CC[C@]43C)[C@@H]12", "TGI", "=", 3.33],
  ["CN(C)CN(C)c1nc(N(C)C)nc(N(C)CN(C)C)n1", "TGI", ">", 100],
  ["Cn1cc(C2=C(c3cn(CCCCC(=N)N)c4ccccc34)C(=O)NC2=O)c2ccccc21", "TGI", ">", 25],
  ["CCCCCCCCCCCCCCCCCC(=O)NCC(COP(=O)(O)O)OCC (stereo not given)", "TGI", ">", 100],
  ["O=C1C=C(N2CCN(CCOCCO)CC2)C(=O)c2c(O)ccc(O)c21", "TGI", "=", 11.4]
]}

###

Tested on: A498 renal
test protocol: NCI tumour cell line growth inhibition, 48 h; in the data active means GI50 below about 0.43 µM; inactive means the rest
Classes used: 1 = active, 0 = inactive

{"columns": ["molecule", "study system", "qualitative label"],
 "data": [
  ["CC(=O)[C-](C(C)=O)c1ccccc1.CC(=O)[C-](C(C)=O)c1ccccc1.CC(=O)[C-](C(C)=O)c1ccccc1.[Cl-].[Zr+4]", "A498 renal", 0],
  ["Cn1cc(C2=C(c3cn(CCCCC(=N)N)c4ccccc34)C(=O)NC2=O)c2ccccc21", "A498 renal", 0],
  ["Oc1ccc(Cl)cc1/C=N\\NC(=S)N/N=C/c1cc(Cl)ccc1O", "A498 renal", 0],
  ["CN(C(=O)CNC(=O)/C=C/c1cccc(Cl)c1)C1CCS(=O)(=O)CC1", "A498 renal", 1],
  ["COc1ccc(-c2nc(C(=O)c3ccccc3)n(CC(=O)c3ccc(Cl)cc3)c2-c2ccc(OC)cc2)cc1", "A498 renal", 0],
  ["NS(=O)(=O)c1ccc(NC(=O)c2cccc(NC3=C(Cl)C(=O)N(Cc4ccccc4)C3=O)c2)cc1", "A498 renal", 0],
  ["Nc1nc(N)c2c(n1)NC(c1sc(Cl)nc1Cl)CC(c1ccc3c(c1)OCO3)=N2 (stereo not given)", "A498 renal", 0],
  ["C=C(C)[C@@H]1CC[C@]2(C(=O)NC(C)=O)CC[C@]3(C)[C@H](CC[C@@H]4[C@@]5(C)CCCNC(C)(C)[C@@H]5CC[C@]43C)[C@@H]12", "A498 renal", 0],
  ["NC(=O)c1ccc(N(C(N)=O)c2c(F)cccc2F)nc1-c1ccc(F)cc1F", "A498 renal", 0],
  ["O=C(c1ccc2ccccc2c1)c1c(C(F)(F)F)n([O-])c2ccc(F)cc2[n+]1=O", "A498 renal", 0],
  ["O=C1/C(=C\\c2ccccc2)C2OCC=C3CN4CCC56c7ccccc7N1C5C2C3CC46 (stereo not given)", "A498 renal", 0],
  ["[CH3][Sn]1([CH3])[O]CC(COc2cc(Cl)c(Cl)cc2Cl)[O]1 (stereo not given)", "A498 renal", 0],
  ["COc1cccc2c1cc1c3c(cc4c(c32)OCO4)C(=O)N1", "A498 renal", 1],
  ["COc1ccc(C2=NC(c3ccc(Cl)cc3)C(c3ccc(Cl)cc3)N2C(=O)N2CCNC(=O)C2)c(OC(C)C)c1 (stereo not given)", "A498 renal", 0],
  ["CN=C(N)N/N=C(\\C)c1ccc2c(c1)Cc1ccccc1-2", "A498 renal", 0]
]}

###

Test system: RPMI-8226 leukemia
test protocol: NCI tumour cell line growth inhibition, 48 h
Where a SMILES comes first, the peptide text is derived from it. The star is where a group is joined. Trt = c1ccc(C(c2ccccc2)(c2ccccc2)*)cc1; Cbz = O=C(OCc1ccccc1)*

{"columns": ["compound", "cmp", "TGI, µM"],
 "data": [
  ["O=C(Nc1ccc(Cl)cc1)c1cc(S(=O)(=O)Nc2n[nH]c(=O)n2-c2ccccc2)c(S)cc1Cl", ">", 100],
  ["S=c1c2ccccc2c(=S)n2n1CC=CC2", ">", 100],
  ["COC(=O)C(CSC(c1ccccc1)(c1ccccc1)c1ccccc1)NC(=O)C(CC(N)=O)NC(=O)OCc1ccccc1 (stereo not drawn) (Cbz-Asn-Cys(Trt)-OMe; configuration not given here)", "=", 5.93],
  ["CC(C)=NOC(=O)Nc1cccc2c1OCO2", ">", 100],
  ["O=C1C(c2c(O)[nH]c3ccc(S(=O)(=O)NCCO)cc23)=Nc2ccccc21", ">", 100],
  ["Cc1ccc(S[C@@H](C)[C@@](O)(C(N)=O)c2ccccc2)cc1", "=", 74.8],
  ["COc1ccc(-c2n/c(=C\\c3c(O)[nH]c4ccccc34)cc3c2=Nc2ccccc2-3)cc1", "=", 6.87],
  ["Cn1nc(-c2ccccc2)c(C(=O)/C=C/c2ccc(Cl)cc2)c(N2CCCC2)c1=O", "=", 7.84],
  ["O=C(/C=C/c1cccc2ccccc12)Nc1ncc(Cc2ccccc2)s1", ">", 100]
]}

Attribution: PubChem BioAssay (NCI)
